target: human FGF-1 (flg) receptor tyrosine kinase (Homo sapiens); construct: a fragment of DNA that codes for the intracellular tyrosine kinase domain; experiment: FGF receptor tyrosine kinase assay; conditions: read-out: Inhibition of Protein Tyrosine Kinases, FGF, IC50
quantity name: IC50 (nM)

- molecule: "CC(C)(C)NC(=O)Nc1nc2nc(N)ncc2cc1-c1c(F)cccc1F"
  IC50, nM: 118

(I) CN1CCN(CCCNc2ncc3cc(-c4c(Cl)cccc4Cl)c(NC(=O)Nc4ccc(Br)cc4)nc3n2)CC1
(II) CCN(CC)CCCNc1ncc2cc(-c3c(Cl)cccc3Cl)c(N=CN(C)C)nc2n1
Q. Between I and II , which one shows the smaller IC50 number? // caller expects the label of the chosen entry
A. I
(I: 196 nM, II: 4010 nM)

(1) CC(C)(C)NC(=O)Nc1nc2nc(N)ncc2cc1-c1c(Br)cccc1Br
(2) Cc1cccc(-c2cc3cnc(N)nc3nc2NC(=O)NC(C)(C)C)c1C
Q. Consider entries 1 and 2 . Which has the numerically lower IC50? State your choice using its label.
A. 1
(1: 148 nM, 2: 343 nM)

(P) Nc1ncc2cc(-c3c(Cl)ccc(Cl)c3Cl)c(N)nc2n1
(Q) CC(C)(C)NC(=O)Nc1nc2nc(NCCCN3CCOCC3)ncc2cc1-c1c(Cl)cccc1Cl
Q. Endpoint returns whichever of P and Q has the numerically higher IC50. Indicate your choice by writing its label.
A. P
(P: 129 nM, Q: 72 nM)

====

target: mouse PDGF-β receptor tyrosine kinase (Mus musculus); construct: a fragment of DNA that codes for the intracellular tyrosine kinase domain; experiment: PDGF receptor tyrosine kinase assay; conditions: read-out: Inhibition of Protein Tyrosine Kinases, PDGF, IC50
Sequence (P05622 599-961 limits assumed): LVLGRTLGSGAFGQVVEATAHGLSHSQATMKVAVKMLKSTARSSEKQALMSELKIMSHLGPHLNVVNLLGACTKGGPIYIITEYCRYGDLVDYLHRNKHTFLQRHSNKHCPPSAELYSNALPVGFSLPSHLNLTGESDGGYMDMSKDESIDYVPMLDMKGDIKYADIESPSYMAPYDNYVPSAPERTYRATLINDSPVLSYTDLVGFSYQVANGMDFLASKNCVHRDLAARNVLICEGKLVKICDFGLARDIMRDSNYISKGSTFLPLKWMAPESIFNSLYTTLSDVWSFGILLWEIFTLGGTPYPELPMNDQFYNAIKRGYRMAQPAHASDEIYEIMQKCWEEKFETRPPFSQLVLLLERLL
quantity name: IC50 (nM)

Below, each entry is followed by its recorded IC50 result.
- query smiles: "Nc1ncc2cc(-c3c(Cl)ccc(Cl)c3Cl)c(N)nc2n1"
  IC50 [nM]: 7630
- query smiles: "CCNC(=O)Nc1nc2nc(N)ncc2cc1-c1c(Cl)cccc1Cl"
  IC50 [nM]: 1300
- query smiles: "CCN(CC)CCCNc1ncc2cc(-c3c(Cl)cccc3Cl)c(NC(=O)NC(C)(C)C)nc2n1"
  IC50 [nM]: 660

(P) Cc1cc(C)cc(-c2cc3cnc(N)nc3nc2NC(=O)NC(C)(C)C)c1
(Q) CC(C)(C)NC(=O)Nc1nc2nc(N)ncc2cc1-c1cccc(Cl)c1Cl
(R) CCNC(=O)Nc1nc2nc(NCCCN3CCN(C)CC3)ncc2cc1-c1c(Cl)cccc1Cl
(S) CCN(CC)CCCNc1ncc2cc(-c3c(C)cccc3C)c(N)nc2n1
Q. Endpoint returns the given compounds ordered by ascending IC50. // rank by listing labels in the order requested
A. R, Q, S, P

====

molecular target: human FGF-1 (flg) receptor tyrosine kinase (Homo sapiens, UniProt P11362); construct: a fragment of DNA that codes for the intracellular tyrosine kinase domain; assay: FGF receptor tyrosine kinase assay; conditions: read-out: Inhibition of Protein Tyrosine Kinases, FGF, IC50
Sequence (P11362 478-767 limits assumed): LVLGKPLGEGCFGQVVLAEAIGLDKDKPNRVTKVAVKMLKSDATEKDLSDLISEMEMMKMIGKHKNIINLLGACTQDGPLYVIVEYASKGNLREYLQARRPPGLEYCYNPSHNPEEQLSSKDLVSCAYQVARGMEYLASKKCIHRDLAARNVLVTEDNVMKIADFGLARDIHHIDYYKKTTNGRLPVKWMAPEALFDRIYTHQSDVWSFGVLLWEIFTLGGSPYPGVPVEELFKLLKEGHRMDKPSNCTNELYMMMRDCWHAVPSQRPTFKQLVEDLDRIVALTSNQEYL
quantity name: IC50 (µM)

- compound: "Cc1cccc(-c2cc3cnc(N)nc3nc2N)c1C"
  IC50 (µM): 2.01

(I) CCN(CCO)CCCNc1ncc2cc(-c3c(Cl)cccc3Cl)c(N)nc2n1
(II) CN1CCN(CCCNc2ncc3cc(-c4c(Cl)cccc4Cl)c(NC(=O)Nc4ccc(C(F)(F)F)cc4)nc3n2)CC1
Q. // which entry reports the smaller IC50, I or II ? Label of pick, please.
A. II
(II: 0.613 µM, I: 2.59 µM)

(P) CCN(CC)C(=O)Nc1nc2nc(NCCCN3CCN(C)CC3)ncc2cc1-c1c(Cl)cccc1Cl
(Q) CN(C)CC(C)(C)CNc1ncc2cc(-c3c(Cl)cccc3Cl)c(NC(=O)NC(C)(C)C)nc2n1
(R) CC(C)(C)NC(=O)Nc1nc2nc(N)ncc2cc1-c1cccnc1
Q. # rank_down: sort by IC50, max first When ranking, write the labels in the order the request describes.
A. P, R, Q
(P: 7.71 µM, R: 4.48 µM, Q: 0.264 µM)
